target: UniProt Q72547; experiment: Inhibition of HIV1 reverse transcriptase at 1 uM
Label scheme for inhibition: lower than 40% is NOT MET, 40% and above is MET.

Worked cases, answers included:
| input smiles | class name |
| --- | --- |
| Cc1ccc2c(nc(-c3c(F)cccc3F)n2Cc2c(F)cccc2F)c1C | NOT MET |
| Fc1cccc(F)c1Cn1c(-c2c(F)cccc2F)nc2cc(Br)ccc21 | MET |
| Cc1cccc2nc(-c3c(F)cccc3F)n(Cc3c(F)cccc3F)c12 | NOT MET |

Asked: For this molecule, is measured inhibition 40% or higher? Cc1cc(C)c2nc(-c3c(F)cccc3F)n(Cc3c(F)cccc3F)c2c1
Given back: NOT MET

Asked: Has O=[N+]([O-])c1ccc2c(c1)nc(-c1c(F)cccc1F)n2Cc1c(F)cccc1F a recorded inhibition greater than or equal to 40%?
Given back: NOT MET

Asked: State whether the measured inhibition reaches 40%, counting equality as reaching it, for Fc1cccc(F)c1Cn1c(-c2c(F)cccc2F)nc2cc(Cl)ccc21
Given back: MET

Asked: Is inhibition for Fc1cccc(F)c1Cn1c(-c2c(F)cccc2F)nc2ccccc21 at or above 40%?
Given back: MET

Asked: Does Cc1cccc2c1nc(-c1c(F)cccc1F)n2Cc1c(F)cccc1F have a reported inhibition of at least 40%?
Given back: MET

Asked: Is the recorded value of inhibition equal to or greater than 40% for this molecule? Fc1cccc(F)c1Cn1c(-c2c(F)cccc2F)nc2c(Cl)cccc21
Given back: MET

Asked: Please tell me: is the molecule Cc1ccc2nc(-c3c(F)cccc3F)n(Cc3c(F)cccc3F)c2c1 at or over 40% in terms of inhibition?
Given back: MET

Asked: Please check the record Cc1ccc2c(c1)nc(-c1c(F)cccc1F)n2Cc1c(F)cccc1F and state if its inhibition is at or above 40%.
Given back: NOT MET

Asked: Confirm if inhibition reported for the molecule Fc1cccc(F)c1Cn1c(-c2c(F)cccc2F)nc2c(Br)cccc21 is 40% or above.
Given back: MET

Asked: Evaluate Fc1cccc(F)c1Cn1c(-c2c(F)cccc2F)nc2ccc(Cl)cc21 : inhibition at minimum 40%?
Given back: MET

====

assay: Toxicity against CEM cells; format: cell-based; conditions: human, CEM (CCRF-CEM) cells; read-out: TC50 (the source's name)
measured endpoint: log10(CC50) (log10 of the value in µM)
Note the log scale: values are log10 of CC50 expressed in µM.

Consider the following illustrative entries.
| input smiles | log10(CC50) |
| --- | --- |
| Fc1cccc(F)c1Cn1c(-c2c(F)cccc2F)nc2ccccc21 | 1.27 |
| Fc1cccc(F)c1Cn1c(-c2c(F)cccc2F)nc2c(Cl)cccc21 | 1.48 |
| OCc1cccc2c1nc(-c1c(F)cccc1F)n2Cc1c(F)cccc1F | 1.76 |
| Fc1cccc(F)c1Cn1c(-c2c(F)cccc2F)nc2c(CCl)cccc21 | 1.13 |
| NCc1cccc2c1nc(-c1c(F)cccc1F)n2Cc1c(F)cccc1F | 1.69 |
| O=C(O)c1cccc2c1nc(-c1c(F)cccc1F)n2Cc1c(F)cccc1F | 1.37 |
| CNc1cccc2c1nc(-c1c(F)cccc1F)n2Cc1c(F)cccc1F | 1.43 |
| O=[N+]([O-])c1cccc2c1nc(-c1c(F)cccc1F)n2Cc1c(F)cccc1F | 1.48 |
| CC(=O)OCc1cccc2c1nc(-c1c(F)cccc1F)n2Cc1c(F)cccc1F | 1.75 |
| N#Cc1cccc2c1nc(-c1c(F)cccc1F)n2Cc1c(F)cccc1F | 1.43 |

Asked: Reported log10(CC50), molecule O=Cc1cccc2c1nc(-c1c(F)cccc1F)n2Cc1c(F)cccc1F : ____
Given back: -0.09

Asked: Entry COC(=O)c1cccc2c1nc(-c1c(F)cccc1F)n2Cc1c(F)cccc1F : reported log10(CC50) = ?
Given back: 1.76

Asked: Recorded log10(CC50) of CC(=O)Nc1cccc2c1nc(-c1c(F)cccc1F)n2Cc1c(F)cccc1F , please.
Given back: 1.59
